TARGET OR TEST SYSTEM: Histone-arginine methyltransferase CARM1 (Homo sapiens)
Sequence (whole entry): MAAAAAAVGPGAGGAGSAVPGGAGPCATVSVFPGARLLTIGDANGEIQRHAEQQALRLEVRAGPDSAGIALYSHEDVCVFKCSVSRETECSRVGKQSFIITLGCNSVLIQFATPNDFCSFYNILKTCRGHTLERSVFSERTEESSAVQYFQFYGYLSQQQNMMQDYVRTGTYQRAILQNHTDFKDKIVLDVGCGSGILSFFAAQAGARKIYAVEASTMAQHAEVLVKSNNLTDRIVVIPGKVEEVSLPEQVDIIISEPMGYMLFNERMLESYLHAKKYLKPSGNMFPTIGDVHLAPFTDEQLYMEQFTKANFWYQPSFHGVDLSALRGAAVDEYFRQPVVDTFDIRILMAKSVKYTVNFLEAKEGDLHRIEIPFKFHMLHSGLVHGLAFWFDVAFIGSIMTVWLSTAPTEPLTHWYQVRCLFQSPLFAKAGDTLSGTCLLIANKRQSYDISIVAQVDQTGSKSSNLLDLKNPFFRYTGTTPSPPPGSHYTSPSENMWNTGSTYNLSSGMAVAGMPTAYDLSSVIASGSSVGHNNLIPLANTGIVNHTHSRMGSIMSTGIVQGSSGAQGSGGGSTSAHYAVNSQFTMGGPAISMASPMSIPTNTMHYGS
PROTOCOL SUMMARY: Inhibition of human recombinant CARM1 assessed as poly(A) binding protein 1 methylation at 100 uM
Calls of active or inactive are those of the source. The rule behind the calls is not given here.
Pick one and only one: active, inactive

RECORD SMILES	TARGET OR TEST SYSTEM	CLASS LABEL
O=C(/C=C/c1ccc(O)c(Br)c1)c1cc(Br)c(O)c(Br)c1	Histone-arginine methyltransferase CARM1 (Homo sapiens)	inactive

Here's the next entry for you.
q: Test call, this compound: O=C1/C(=C/c2ccc(O)c(Br)c2)Cc2ccccc2/C1=C\c1ccc(O)c(Br)c1
a: active
